Sourced from ChEMBL document CHEMBL1201862

Test system: NCI-H226
Assay: NCI tumour cell line growth inhibition, 48 h
Active and inactive are the calls of the source. No stated cut-off is given here; in the data, active = GI50 up to about 1.1 µM and inactive = higher.
quantity: GI50

>>> df
                                    compound  quantity         result_value
 0  C=CC[C@@]1(C(=O)OC)[C@H](Sc2ccccc2)C1(C)C      GI50   35.5 µM (inactive)
 1     CN(C)CCNC(=O)c1cccc2nc(-c3ccccc3)oc12      GI50   29.1 µM (inactive)
 2  CCOC(=O)C(=CNc1ccc(NC2=NCC(C)S2)cc1)C(=O)OCC (configuration not stated)      GI50   42.4 µM (inactive)
 3  O=C1C(=O)N(c2ccc(Cl)c(Cl)c2)C(=O)C(=O)C1c1nc2ccccc2o1      GI50  > 100 µM (inactive)
 4  CCOC(=O)C1(C(=O)OCC)C=C(c2ccccc2)N(C2OC(COC(C)=O)C(OC(C)=O)C(OC(C)=O)C2OC(C)=O)C1=S (configuration not stated)      GI50  > 100 µM (inactive)
 5  O=NN(Cc1ccc(Cl)cc1)C(C(=O)O)c1ccccc1 (configuration not stated)      GI50  > 100 µM (inactive)
 6          O=C(O)/C=C/c1ccc(OS(=O)(=O)O)cc1      GI50  > 100 µM (inactive)
 7       C/C(=N\N=C(/S)N(C)C)c1cccc[n+]1[O-]      GI50   54.6 µM (inactive)
 8  Cc1ccc(/C=C2\CN(C)CC3=C2OC(N)=C(C#N)C3c2ccc(C)cc2)cc1 (configuration not stated)      GI50   22.2 µM (inactive)
 9  NCC(O)CSP(=O)(O)O (configuration not stated)      GI50  > 100 µM (inactive)
10    Cn1c(=O)c2nc(SCc3ccccn3)[nH]c2n(C)c1=S      GI50   63.7 µM (inactive)
11     O=C1Oc2ccccc2N/C1=C/C(=O)c1ccc(Cl)cc1      GI50  > 100 µM (inactive)
